Assay: chemical genetic growth profiling, strain panel (AID 1159580);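 note: tested at 20 µM; growth read once vehicle control cultures reached saturation at 30 °C; 1 = growth at the plate median or of vehicle wells; lower values mean less growth of the strain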
Details: S. cerevisiae deletion strains, growth OD, locus YDL192W, strain arf1, hits give low values
In all, about 5,500 compounds went through this assay and about 2,000 (36%) were called active. About 18% were inconclusive and are not listed. Some of the results follow.
normalized growth less than 1 is fulfilled; normalized growth greater than or equal to 1 is not fulfilled.

[[record]]
compound = "COc1ccc([C@H]2Oc3c(I)c(OC)cc(OC)c3C[C@@H]2O)cc1OC"
group_label = "not fulfilled"

[[record]]
compound = "O=C(Oc1cc(O)cc2c1C[C@@H](OC(=O)c1cc(O)c(O)c(O)c1)[C@@H](c1cc(O)c(O)c(O)c1)O2)c1cc(O)c(O)c(O)c1"
group_label = "fulfilled"

[[record]]
compound = "O=C(O[C@@H]1Cc2c(O)cc(O)cc2O[C@@H]1c1cc(O)c(O)c(O)c1)c1cc(O)c(O)c(O)c1"
group_label = "fulfilled"

[[record]]
compound = "CCCCNC(=O)NS(=O)(=O)c1ccc(C)cc1"
group_label = "fulfilled"

[[record]]
compound = "Oc1ccc2c(c1)O[C@H](c1ccc(O)c(O)c1)[C@@H](O)C2"
group_label = "not fulfilled"

[[record]]
compound = "Oc1cc(O)c2c(c1)OC(c1cc(O)c(O)c(O)c1)C(O)C2c1c(O)cc(O)c2c1OC(c1cc(O)c(O)c(O)c1)C(O)C2c1c(O)cc(O)c2c1OC(c1cc(O)c(O)c(O)c1)C(O)C2 (configuration not stated)"
group_label = "fulfilled"


* * *

Reported normalized growth values follow for various compounds
Test: chemical genetic growth profiling, strain panel (AID 1159580);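 note: tested at 20 µM; growth read once vehicle control cultures reached saturation at 30 °C; 1 = growth at the plate median or of vehicle wells; lower values mean less growth of the strain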
Conditions: S. cerevisiae deletion strains, growth OD, locus YDL132W, strain cdc53, hits give low values
Among all 5,500 compounds or so, about 2,000 (36%) were called active. About 18% were inconclusive and are not listed. Some of the results follow.
Test readout: normalized growth

[[record]]
line_notation = "CCOC(=O)c1ccc2nc(N=CNO)sc2c1"
value = 0.946

[[record]]
line_notation = "O=C(/C=C/c1ccc2c(c1)OCO2)Nc1ccc(Br)cc1"
value = 0.96

[[record]]
line_notation = "Cc1ccc(S(=O)(=O)NC(=O)Nc2ccc(Sc3ccccc3)nc2Sc2ccccc2)cc1"
value = 0.956


* * *

Assay: chemical genetic growth profiling, strain panel (AID 1159580);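 note: tested at 20 µM; growth read once vehicle control cultures reached saturation at 30 °C; 1 = growth at the plate median or of vehicle wells; lower values mean less growth of the strain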
Settings: S. cerevisiae deletion strains, growth OD, locus YLL001W, strain dnm1, hits give low values
The campaign covered roughly 5,500 compounds. About 2,000 (36%) were called active. Not shown: some 18% with an inconclusive outcome. The list shows a part of the results.
Test readout: normalized growth

[[record]]
compound = "CC1(O)CC2C(CC1O)C2(C)C (stereo not drawn)"
test_readout = "normalized growth"
value = 1

[[record]]
compound = "CN1CC(=O)N=C1N"
test_readout = "normalized growth"
value = 1.01

[[record]]
compound = "CC(=O)O[C@H]1C[C@@H](OC(C)=O)C(C)(C)C2CC(=O)[C@]3(C)C(CC[C@@]4(C)[C@H](C(=O)O)OC(=O)C5OC543)[C@]21C (stereo partly drawn)"
test_readout = "normalized growth"
value = 1


* * *

Test: chemical genetic growth profiling, strain panel (AID 1159580);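 note: tested at 20 µM; growth read once vehicle control cultures reached saturation at 30 °C; 1 = growth at the plate median or of vehicle wells; lower values mean less growth of the strain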
Settings: S. cerevisiae deletion strains, growth OD, locus YJR075W, strain HOC1, hits give low values
Screen size: about 5,500 compounds; about 2,000 (36%) were called active. Not shown: some 18% with an inconclusive outcome. This is one part of the list.
Test readout: normalized growth

[[record]]
compound = "CN1C2C[C@H](OC(=O)[C@H](CO)c3ccccc3)C[C@H]1[C@@H](O)C2"
value = 1.01

[[record]]
compound = "NS(=O)(=O)c1cc2c(cc1Cl)NC=NS2(=O)=O"
value = 1.02

[[record]]
compound = "CN1C2CCC1CC(OC(=O)c1cc(Cl)cc(Cl)c1)C2 (configuration not stated)"
value = 0.997

[[record]]
compound = "C/C(=N/O)c1sc2nc(C(F)(F)F)nn2c1C"
value = 0.997

[[record]]
compound = "CC[C@@]1(O)C[C@H](O[C@H]2C[C@H](N(C)C)[C@H](O)[C@H](C)O2)c2c(cc3c(c2O)C(=O)c2c(O)ccc(O)c2C3=O)[C@H]1C(=O)OC"
value = 0.0948

[[record]]
compound = "CSc1c(-c2ccccc2)c(N)nn1S(=O)(=O)c1ccccc1"
value = 0.971

[[record]]
compound = "C[N+](C)(C)CCC(=O)c1cccc2ccccc12"
value = 0.813

[[record]]
compound = "CN1C2CCC1CC(OC(=O)c1c[nH]c3ccccc13)C2 (configuration not stated)"
value = 1

[[record]]
compound = "CSc1nc(N)n(-c2ccccc2)n1"
value = 1

[[record]]
compound = "Fc1ccc(C(OCCN2CCN(CCCc3ccccc3)CC2)c2ccc(F)cc2)cc1"
value = 0.797

[[record]]
compound = "COc1ccc(-c2coc3cc(OC)ccc3c2=O)cc1"
value = 0.913

[[record]]
compound = "CN(C)CCOC(c1ccc(Cl)cc1)c1ccccn1 (configuration not stated)"
value = 1.03

